meta.source: the supplement of paper PMC12042874

Assay: amyloid nucleation score (Sup35N fusion, yeast selection) (log enrichment); library NNK1; higher = more nucleation; inactive = no reads after selection;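 note: zero at mode of non-aggregating sequences after 7 days selection at 30°C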
Class definitions on amyloid nucleation score: lowest = under -0.3, middle = from -0.3 up to 0.4, highest = 0.4 and over

Enquiry: Record `IYIMKHASSSMNGVSVQDFM` — which class?
Return: highest

Enquiry: Record `VSWENPSINLRRADLPCPLF` — which class?
Return: highest

Enquiry: Record `NPLTGAL` — which class?
Return: lowest

Enquiry: Record `STDMYVPVPDTDWIICLRQL` — which class?
Return: middle

Enquiry: Record `RCLGVCYTLDVFRSRMLDKL` — which class?
Return: middle

Enquiry: Record `SYLFVWFTSLLSDPQ` — which class?
Return: lowest

Enquiry: Record `YTTASDNHVWSWLEYWVRVI` — which class?
Return: middle

Enquiry: Record `GDVSRQTVEV` — which class?
Return: middle

---

Assay: amyloid nucleation score (Sup35N fusion, yeast selection) (log enrichment); library NNK1; higher = more nucleation; inactive = no reads after selection
Provide the reported amyloid nucleation score of each item.
Just the number, please, no unit after it.

Enquiry: Sample `RRLTRIIKAKL` — what was its amyloid nucleation score?
Return: 0.018

Enquiry: Sample `WFSVMLRYEY` — what was its amyloid nucleation score?
Return: 1.71

Enquiry: Sample `FIRGLCNVLGCSR` — what was its amyloid nucleation score?
Return: 1.04

Enquiry: Sample `GKVFVVSVKCNEVVDFGWCQ` — what was its amyloid nucleation score?
Return: 0.073

Enquiry: Sample `GYMSKLEYLPTQLYLLSLRE` — what was its amyloid nucleation score?
Return: 0.85

Enquiry: Sample `PFSVWSPPMMDPVHNIFWVR` — what was its amyloid nucleation score?
Return: -0.203

Enquiry: Sample `DNAYDRVGTQGSAWFCGDCL` — what was its amyloid nucleation score?
Return: -0.655

Enquiry: Sample `YFGVFCQRMMVTALSPKNPT` — what was its amyloid nucleation score?
Return: -0.369

Enquiry: Sample `NVIWVASYF` — what was its amyloid nucleation score?
Return: -0.914

Enquiry: Sample `SVIRDWLSGACSGTTEGRRT` — what was its amyloid nucleation score?
Return: -0.295

Enquiry: Sample `DRRYVKLLRLYCCILECTKV` — what was its amyloid nucleation score?
Return: -0.18

Enquiry: Sample `CMLDGALLLILVVFTIPCLN` — what was its amyloid nucleation score?
Return: 0.909

Enquiry: Sample `SRFHVKLRLYFGSNIARTSK` — what was its amyloid nucleation score?
Return: 6.62

Enquiry: Sample `QDGLGLTDAVRRTGFVGRTH` — what was its amyloid nucleation score?
Return: 0.197

Enquiry: Sample `YCGMCVYLISYMATFNCYYY` — what was its amyloid nucleation score?
Return: 3.54

Enquiry: Sample `HYRYGGLAMFLVWIEMFLYW` — what was its amyloid nucleation score?
Return: 0.407

Enquiry: Sample `PCTRHCLRLHLAFMWLILAI` — what was its amyloid nucleation score?
Return: -0.31

---

Provide the reported amyloid nucleation score of each item.
Test: amyloid nucleation score (Sup35N fusion, yeast selection) (log enrichment); library NNK1; higher = more nucleation; inactive = no reads after selection
Just the number, please, no unit after it.

Enquiry: Sample `CCRARDLIYLNITHAFFSIL` — what was its amyloid nucleation score?
Return: -0.289

Enquiry: Sample `VREYMTFQDMYLSGVSTVTL` — what was its amyloid nucleation score?
Return: 1.08

Enquiry: Sample `ALGVHR` — what was its amyloid nucleation score?
Return: 1.76

Enquiry: Sample `KLSSKWTRACRHNSC` — what was its amyloid nucleation score?
Return: -0.134

Enquiry: Sample `VMFVPLQSVYSAP` — what was its amyloid nucleation score?
Return: -0.766

Enquiry: Sample `PHIIFNVVTITYMISALRHV` — what was its amyloid nucleation score?
Return: 3.49

Enquiry: Sample `ALSSNVGSMAFSR` — what was its amyloid nucleation score?
Return: -0.06

Enquiry: Sample `DRSRVLSSGETGYDIEVGQS` — what was its amyloid nucleation score?
Return: -0.033

Enquiry: Sample `NKCKKYGYLFRLSGYEGHNL` — what was its amyloid nucleation score?
Return: 5.54

Enquiry: Sample `HIVNCVKML` — what was its amyloid nucleation score?
Return: 0.788

Enquiry: Sample `HVNLLNRTLCK` — what was its amyloid nucleation score?
Return: 0.151

Enquiry: Sample `FSDNRASPESKPQCVTGRRD` — what was its amyloid nucleation score?
Return: 0.669

Enquiry: Sample `NGGMGSPLDYQRWSDGDQVG` — what was its amyloid nucleation score?
Return: -0.365

Enquiry: Sample `KGDVPGYARCEVKTVRTFWM` — what was its amyloid nucleation score?
Return: 0.231

Enquiry: Sample `MYLVVTVRFNWLPRDQFTVL` — what was its amyloid nucleation score?
Return: 0.848

Enquiry: Sample `LRYILFKNPSPNNIESL` — what was its amyloid nucleation score?
Return: -0.194
